Entries and their protein stability index values follow.
Test system: Saccharomyces cerevisiae;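 also: PSI is a weighted mean of sequencing reads over stability bins, variants kept only with over 10 reads, mCherry proximal and sfGFP distal, peptide attached via GGGS linker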
experiment_summary: protein stability index of tFT-peptide fusion (C-terminal peptide) (PSI (0-1 scale)); higher = more stable (slower turnover)
condition_summary: genetic background: wild type; temperature: 30 C
// return just the number, without any unit appended

{"columns": ["input_sequence", "target_or_system", "protein stability index"],
 "data": [
  ["LLLFLHSTLTCR", "Saccharomyces cerevisiae", 0.411],
  ["APPPVAPAPGSA", "Saccharomyces cerevisiae", 0.675],
  ["CFGIFWLFARLK", "Saccharomyces cerevisiae", 0.274]
]}

Ask: Would you kindly share the measured protein stability index for SVGWGFWARFIG ?
Result: 0.253

Ask: If you can, please state the reported protein stability index value of CLAGALSWLRRG .
Result: 0.646

Ask: Which measured protein stability index value corresponds to FFVSFFFFLWLV ?
Result: 0.161

Ask: # input sequence: VLVWLRLRVGLR ; wanted: its protein stability index
Result: 0.213

Ask: Any idea what protein stability index was measured for SVLALLWVGCWL ?
Result: 0.265

Ask: I have this sequence here, QDQWINTSLELS , and I need its recorded protein stability index.
Result: 0.68

Ask: protein stability index for GKHILLISLNIT ?
Result: 0.251

Ask: # query: protein stability index of entry RLVRILSTILLN
Result: 0.1

Ask: Look up protein stability index: SLLFLVLFFPLV
Result: 0.43
